The measured values listed here are drawn from patent US20180179273A1.

# testedTarget: human alpha-synuclein (human, UniProt P37840 1-140)
# testSummary: SPR Biacore 3000, synuclein ligand format
metric: kon (M⁻¹ s⁻¹)

INSERT INTO assay_data (binder, reportedmeasurement) VALUES
  ('ch2E6 (antibody, V domains shown, also called chimeric 2E6) VH: QVQLQQPGAELVKPGASVKLSCTASGYTFTSYWMHWMKQRPGRGLEWIGRIDPNSGTTKYNVNFKTKATLTVDKPSSTAYMHLSSLTSEDSAVYYCARLGHYGNLYAMDYWGQGTSVT VL: QIVLTQSPAIMSASPGEKVTMTCSASSSVSYMHWYQQKSGTSPKRWIYDTSKLASGVPTRFSGSGSGTSYSLTISSMDTEDAATYYCQQWSSNPPTFGAGTKLELK', 62900),
  ('2E6-HLD-2 (antibody, V domains shown, Humanized 2E6) VH: QVQLVQSGAEVKKPGASVKVSCKASGYTFTSYWMHWVRQAPGQGLEWIGRIDPNSGTTKYNVNFKTRATLTVDKSTSTAYMELSSLRSEDTAVYYCARLGHYGNLYAMDYWGQGTLVT VL: EIVLTQSPATLSLSPGERATLSCSASSSVSYMHWYQQKPGQAPRRWIYDTSKLASGVPARFSGSGSGTDYTLTISSLEPEDFAVYYCQQWSSNPPTFGQGTKLEIKR', 58000),
  ('2E6 HLD 3 (antibody, V domains shown) VH: QVQLVQSGAEVKKPGASVKVSCKASGYTFTSYWMHWMRQAPGQGLEWIGRIDPNSGTTKYNVNFKTRVTLTVDKSTSTAYMELSSLRSEDTAVYYCARLGHYGNLYAMDYWGQGTLVT VL: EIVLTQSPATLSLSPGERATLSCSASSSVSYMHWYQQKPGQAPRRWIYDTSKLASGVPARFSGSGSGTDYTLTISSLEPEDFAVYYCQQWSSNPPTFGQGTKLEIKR', 48900),
  ('2E6-HLD-1 (antibody, V domains shown, Humanized 2E6 tested as IgG; also called Humanized HLD-1) VH: QVQLVQSGAEVKKPGASVKVSCKASGYTFTSYWMHWMRQAPGQGLEWIGRIDPNSGTTKYNVNFKTRATLTVDKSTSTAYMELSSLRSEDTAVYYCARLGHYGNLYAMDYWGQGTLVT VL: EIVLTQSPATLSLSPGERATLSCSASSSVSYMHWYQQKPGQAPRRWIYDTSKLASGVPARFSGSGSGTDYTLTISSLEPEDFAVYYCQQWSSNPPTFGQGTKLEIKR', 123000);
